Entries annotated with measured GI50
system: UO-31; experiment: NCI tumour cell line growth inhibition, 48 h
Calls of active or inactive are those of the source. No stated cut-off is given here; in the data, active = GI50 up to about 1.1 µM and inactive = higher.

Reference set, count: 3
| compound | GI50 |
| --- | --- |
| C=C(CN(CC(=C)C(=O)c1ccccc1)C(C)(C)C)C(=O)c1ccccc1 | 11.7 µM (inactive) |
| Cc1cc(C)c(C(=O)OC(c2ccccc2)C(c2ccccc2)N2CCOCC2)c(C)c1 (stereo not given) | > 100 µM (inactive) |
| C=CCOC(=O)CC[C@H](NC(=O)[C@@H](CCC(F)(F)F)Cc1ccc(O)cc1)C(=O)OCC=C | > 100 µM (inactive) |

Given the compound COC(=O)CCC(=O)Nc1cccc(C(F)(F)F)c1 , what is its reported GI50? > 100 µM (inactive)

Any idea what GI50 was measured for C[C@@]12C[C@@H](c3ccccc3O1)N1CCCCSC1=N2 ? > 100 µM (inactive)
